biological target: Recombinant human renin (Homo sapiens, UniProt P00797); construct: isolate the active form (residues 67-406); made in house; host or cells: FreeStyle 293-F cells (transient expression of pcDNA3.1(+)/hREN); test: In vitro enzymatic activity assay of renin inhibitors (fluorogenic peptide substrate); assay type: biochemical; conditions: read-out: IC50 of Exemplified Compounds Against Renin
Sequence (P00797 67-406): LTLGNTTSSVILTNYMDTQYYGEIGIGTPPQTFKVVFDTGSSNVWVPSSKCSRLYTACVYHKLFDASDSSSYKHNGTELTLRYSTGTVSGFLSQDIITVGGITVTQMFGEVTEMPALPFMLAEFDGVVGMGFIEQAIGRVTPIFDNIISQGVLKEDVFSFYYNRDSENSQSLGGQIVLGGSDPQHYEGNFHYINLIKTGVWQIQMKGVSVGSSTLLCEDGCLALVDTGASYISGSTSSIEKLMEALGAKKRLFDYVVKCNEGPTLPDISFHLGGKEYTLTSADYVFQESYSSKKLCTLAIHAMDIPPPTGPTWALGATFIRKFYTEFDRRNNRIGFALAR
pIC50: −log10 of the molar value.
TEST READOUT: pIC50

Consider the reported pIC50 for these compounds:
{"COMPOUND": "COCCCn1c([C@@H]2CCCN(C(=O)C[C@H](N)CNC(=O)c3ccc(-c4cc(Cl)cc(Cl)c4)o3)C2)nc2ccccc21", "SYSTEM NAME": "Recombinant human renin (Homo sapiens, UniProt P00797)", "pIC50": "6.00 to 7.00"}
{"COMPOUND": "COCCCn1c([C@@H]2CCCN(C(=O)C[C@H](N)CNS(=O)(=O)c3c(Cl)cccc3Cl)C2)nc2ccccc21", "SYSTEM NAME": "Recombinant human renin (Homo sapiens, UniProt P00797)", "pIC50": "6.00 to 7.00"}
{"COMPOUND": "COCCCn1c([C@@H]2CCCN(C(=O)[C@@H]3CN(C(=O)Nc4ccc(OC)cc4)C[C@H]3N)C2)nc2ccccc21", "SYSTEM NAME": "Recombinant human renin (Homo sapiens, UniProt P00797)", "pIC50": "< 6.00"}
{"COMPOUND": "COCCCn1c([C@@H]2CCCN(C(=O)C[C@H](N)Cc3ccc(-c4ccc(OC)cc4)cc3)C2)nc2ccccc21", "SYSTEM NAME": "Recombinant human renin (Homo sapiens, UniProt P00797)", "pIC50": "> 7.00"}

Q) Param readout= pIC50; system= Recombinant human renin (Homo sapiens, UniProt P00797); entry= COCCCn1c([C@@H]2CCCN(C(=O)C[C@H](N)Cc3ccc(-c4ccc(C(=O)OC)cc4)cc3)C2)nc2ccccc21 ; returns value.
A) > 7.00

Q) Param readout= pIC50; system= Recombinant human renin (Homo sapiens, UniProt P00797); entry= COCCCn1c([C@@H]2CCCN(C(=O)CC(CN)c3ccc(Cl)cc3)C2)nc2ccccc21 (stereo partly shown) ; returns value.
A) < 6.00

Q) Param readout= pIC50; system= Recombinant human renin (Homo sapiens, UniProt P00797); entry= COCCCn1c([C@@H]2CCCN(C(=O)C[C@H](N)CNC(=O)c3cccc(Oc4ccccc4)c3)C2)nc2ccccc21 ; returns value.
A) 6.00 to 7.00

----------
pIC50 values, listed per item
molecular target: Recombinant human renin (Homo sapiens); construct: isolate the active form (residues 67-406); made in house; host or cells: FreeStyle 293-F cells (transient expression of pcDNA3.1(+)/hREN); assay: In vitro enzymatic activity assay of renin inhibitors (fluorogenic peptide substrate); type: biochemical; settings: read-out: IC50 of Exemplified Compounds Against Renin
pIC50: −log10 of the molar value.

{"COMPOUND": "COCCCn1c([C@@H]2CCCN(C(=O)C[C@H](N)Cc3ccc(-c4ccc5c(c4)NC(=O)CO5)cc3)C2)nc2ccccc21", "TEST READOUT": "pIC50", "TEST VALUE": "> 7.00"}

Q) For the compound shown here, COCCCn1c([C@@H]2CCCN(C(=O)[C@@H]3CN(S(=O)(=O)c4ccc(F)cc4Cl)C[C@H]3N)C2)nc2ccccc21 , give the reported pIC50.
A) 6.00 to 7.00

Q) For the compound shown here, COCCCn1c([C@@H]2CCCN(C(=O)[C@@H]3CN(C(=O)c4cccc(F)c4)C[C@H]3N)C2)nc2ccccc21 , give the reported pIC50.
A) < 6.00

Q) For the compound shown here, COCCCn1c([C@@H]2CCCN(C(=O)C[C@H](N)CNC(=O)c3ccc(-c4ccccc4)s3)C2)nc2ccccc21 , give the reported pIC50.
A) > 7.00

Q) For the compound shown here, COCCCn1c([C@@H]2CCCN(C(=O)C[C@H](N)CNS(=O)(=O)C(C)C)C2)nc2ccccc21 , give the reported pIC50.
A) 6.00 to 7.00

Q) For the compound shown here, CCCSc1ncccc1C(=O)N1C[C@@H](N)[C@H](C(=O)N2CCC[C@@H](c3nc4ccccc4n3CCCOC)C2)C1 , give the reported pIC50.
A) < 6.00

Q) For the compound shown here, COCCCn1c([C@@H]2CCCN(C(=O)[C@@H]3CN(S(=O)(=O)c4ccc(Cl)cc4)C[C@H]3N)C2)nc2ccccc21 , give the reported pIC50.
A) 6.00 to 7.00
